Value source: the supplement of paper PMC10567573

B1: PBXIP1 (parent)
chain: LQQLRARLQGLEADCVRGPDGVCL

Variants of: B1
Experiment description: protein stability index of a GFP-peptide fusion (GPS, HEK-293T) (PSI 1-6); higher = more stable;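 note: lentivirally expressed fusions sorted by FACS into six bins by GFP to DsRed ratio, PSI derived from sequencing read proportions per bin multiplied by bin number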
Reported conditions: c terminus: a fixed tail appended
Each entry below carries its recorded protein stability index.

Example variants with recorded protein stability index:
Mutation id: Q9E
protein stability index: 1.6
--
Mutation id: Q2N
protein stability index: 3.27
--
Mutation id: P19T
protein stability index: 2.12

## Task Please give measured protein stability index of the following entry: "A6Y"
## Result 2.03

## Task Please give measured protein stability index of the following entry: "G18M"
## Result 2.32
